Each recorded value in this set is attributed to ChEMBL document CHEMBL5724914.

# test conditions: human gut metagenome, 24 h, 2 µM; note: call rule not given here

{"columns": ["molecule", "Bacterial Biotransformation"],
 "data": [
  ["CCc1cccc2c3c([nH]c12)C(CC)(CC(=O)O)OCC3 (centres undefined) [ETODOLAC]", "Compound metabolized"],
  ["CCS(=O)(=O)CCn1c([N+](=O)[O-])cnc1C [TINIDAZOLE]", "Compound metabolized"],
  ["CC(=O)O[C@]1(C(C)=O)CC[C@H]2[C@@H]3C=C(C)C4=CC(=O)CC[C@]4(C)[C@H]3CC[C@@]21C [MEGESTROL ACETATE]", "Compound metabolized"]
]}

----------
# measurement description: The drug is tested on Z-005 corresponding to metagenome with ENA study accession number: PRJEB37062 and ENA sample accession number: ERS12561805 for biotransformation under anaerobic condition. The drug concentrations were measured over 9 timepoints collected between 0 and 24 hours of incubation by liquid-chromatography-coupled mass spectrometry (LC–MS)
# test conditions: 2 µM

{"columns": ["compound", "Bacterial Biotransformation"],
 "data": [
  ["Br.CN1CCC[C@@H]1Cc1c[nH]c2ccc(CCS(=O)(=O)c3ccccc3)cc12 [ELETRIPTAN HYDROBROMIDE]", "Compound NOT metabolized"],
  ["CN(C)CCC=C1c2ccccc2COc2ccccc21 [DOXEPIN]", "Compound NOT metabolized"],
  ["O=C1CCc2ccc(OCCCCN3CCN(c4cccc(Cl)c4Cl)CC3)cc2N1", "Compound metabolized"],
  ["CCCN1C[C@H](CSC)C[C@@H]2c3cccc4[nH]cc(c34)C[C@H]21.CS(=O)(=O)O [PERGOLIDE MESYLATE]", "Compound NOT metabolized"],
  ["CC(=O)O[C@H]1C(=O)[C@@]2(C)[C@H]([C@H](OC(=O)c3ccccc3)[C@]3(O)C[C@H](OC(=O)[C@H](O)[C@@H](NC(=O)c4ccccc4)c4ccccc4)C(C)=C1C3(C)C)[C@]1(OC(C)=O)CO[C@@H]1C[C@@H]2O", "Compound metabolized"],
  ["CC(C)(C)NCC(O)c1cc(Cl)c(N)c(Cl)c1 (configuration not stated)", "Compound NOT metabolized"],
  ["CCc1cccc2c3c([nH]c12)C(CC)(CC(=O)O)OCC3 (configuration not stated)", "Compound NOT metabolized"]
]}

----------
# measurement description: The drug is tested on Z-014 corresponding to rat gut metagenome with ENA study accession number: PRJEB37062 and ENA sample accession number: ERS12561814 for biotransformation under anaerobic condition. The drug concentrations were measured over 9 timepoints collected between 0 and 24 hours of incubation by liquid-chromatography-coupled mass spectrometry (LC–MS)
# test conditions: 2 µM
property name: Bacterial Biotransformation

{"columns": ["compound", "observed value"],
 "data": [
  ["CN1[C@@H]2CC[C@H]1C[C@@H](OC(=O)[C@H](CO)c1ccccc1)C2", "Compound NOT metabolized"],
  ["COC1=C(OC)C(=O)C(CCCCCCCCCCO)=C(C)C1=O", "Compound metabolized"],
  ["C=CC[C@@H]1/C=C(\\C)C[C@H](C)C[C@H](OC)[C@H]2O[C@@](O)(C(=O)C(=O)N3CCCC[C@H]3C(=O)O[C@H](/C(C)=C/[C@@H]3CC[C@@H](O)[C@H](OC)C3)[C@H](C)[C@@H](O)CC1=O)[C@H](C)C[C@@H]2OC.O", "Compound NOT metabolized"],
  ["COc1cc(NC(C)CCCN)c2ncccc2c1.O=P(O)(O)O.O=P(O)(O)O (stereo not given) [PRIMAQUINE PHOSPHATE]", "Compound NOT metabolized"],
  ["COc1ccc(C(CN(C)C)C2(O)CCCCC2)cc1 (stereo not given)", "Compound NOT metabolized"],
  ["CN1C[C@H](C(=O)N[C@]2(C)O[C@@]3(O)[C@@H]4CCCN4C(=O)[C@H](Cc4ccccc4)N3C2=O)C[C@@H]2c3cccc4[nH]cc(c34)C[C@H]21.CS(=O)(=O)O [DIHYDROERGOTAMINE MESYLATE]", "Compound NOT metabolized"],
  ["CCN(CC)C(=O)C1(c2ccccc2)CC1CN (stereo not given)", "Compound NOT metabolized"],
  ["C#C[C@]1(OC(C)=O)CC[C@H]2[C@@H]3CCC4=C[C@@H](OC(C)=O)CC[C@@H]4[C@H]3CC[C@@]21C [ETHYNODIOL DIACETATE]", "Compound metabolized"],
  ["COc1ccc(Cc2nccc3cc(OC)c(OC)cc23)cc1OC", "Compound NOT metabolized"],
  ["Cc1cc2c(s1)Nc1ccccc1N=C2N1CCN(C)CC1", "Compound NOT metabolized"],
  ["COc1ccc([C@@H]2Sc3ccccc3N(CCN(C)C)C(=O)[C@@H]2OC(C)=O)cc1", "Compound NOT metabolized"],
  ["N#Cc1ccc2[nH]cc(CCCCN3CCN(c4ccc5oc(C(N)=O)cc5c4)CC3)c2c1", "Compound NOT metabolized"],
  ["CC(=O)OCC(CCn1cnc2cnc(N)nc21)COC(C)=O", "Compound metabolized"],
  ["CN1CCC(OC(c2ccccc2)c2ccccc2)CC1", "Compound NOT metabolized"],
  ["CC(=O)O[C@H]1C(=O)[C@@]2(C)[C@H]([C@H](OC(=O)c3ccccc3)[C@]3(O)C[C@H](OC(=O)[C@H](O)[C@@H](NC(=O)c4ccccc4)c4ccccc4)C(C)=C1C3(C)C)[C@]1(OC(C)=O)CO[C@@H]1C[C@@H]2O", "Compound metabolized"]
]}

----------
# measurement description: The drug is tested on Z-008 corresponding to metagenome with ENA study accession number: PRJEB37062 and ENA sample accession number: ERS12561808 for biotransformation under anaerobic condition. The drug concentrations were measured over 9 timepoints collected between 0 and 24 hours of incubation by liquid-chromatography-coupled mass spectrometry (LC–MS)
# test conditions: 2 µM

{"columns": ["compound", "Bacterial Biotransformation"],
 "data": [
  ["CC12CC3CC(C)(C1)CC(N)(C3)C2 [MEMANTINE]", "Compound NOT metabolized"],
  ["Cc1cc2c(s1)Nc1ccccc1N=C2N1CCN(C)CC1", "Compound NOT metabolized"],
  ["CC#C[C@]1(O)CC[C@H]2[C@@H]3CCC4=CC(=O)CCC4=C3[C@@H](c3ccc(N(C)C)cc3)C[C@@]21C", "Compound metabolized"],
  ["CN(C)CCC=C1c2ccccc2COc2ccccc21 [DOXEPIN]", "Compound NOT metabolized"],
  ["O=C(CCCN1CCC2(CC1)C(=O)NCN2c1ccccc1)c1ccc(F)cc1", "Compound NOT metabolized"],
  ["C[N+]12CCC(CC1)C(OC(=O)C(O)(c1ccccc1)c1ccccc1)C2.[Br-] (stereo not given) [CLIDINIUM BROMIDE]", "Compound NOT metabolized"],
  ["C[C@]12CCC(=O)C=C1[C@@H]1C[C@@H]1[C@H]1[C@@H]3[C@@H]4C[C@@H]4[C@@]4(CCC(=O)O4)[C@@]3(C)CC[C@@H]12", "Compound metabolized"],
  ["CC(C)C[C@H]1C(=O)N2CCC[C@H]2[C@]2(O)O[C@](NC(=O)[C@@H]3C=C4c5cccc6[nH]c(Br)c(c56)C[C@H]4N(C)C3)(C(C)C)C(=O)N12.CS(=O)(=O)O [BROMOCRIPTINE MESYLATE]", "Compound metabolized"],
  ["CC(C)c1nc(N(C)S(C)(=O)=O)nc(-c2ccc(F)cc2)c1/C=C/[C@@H](O)C[C@@H](O)CC(=O)[O-].CC(C)c1nc(N(C)S(C)(=O)=O)nc(-c2ccc(F)cc2)c1/C=C/[C@@H](O)C[C@@H](O)CC(=O)[O-].[Ca+2]", "Compound NOT metabolized"],
  ["CCN1CCCC1CNC(=O)c1cc(S(=O)(=O)CC)c(N)cc1OC (stereo not given) [AMISULPRIDE]", "Compound NOT metabolized"],
  ["C#C[C@]1(OC(C)=O)CC[C@H]2[C@@H]3CCC4=CC(=O)CC[C@@H]4[C@H]3CC[C@@]21C [NORETHINDRONE ACETATE]", "Compound metabolized"],
  ["CCS(=O)(=O)CCn1c([N+](=O)[O-])cnc1C", "Compound metabolized"],
  ["CCCC(C)(COC(N)=O)COC(=O)NC(C)C (stereo not given)", "Compound metabolized"],
  ["CCOc1ccccc1OCCN[C@H](C)Cc1ccc(OC)c(S(N)(=O)=O)c1.Cl [TAMSULOSIN HYDROCHLORIDE]", "Compound NOT metabolized"],
  ["N=C(N)NC(=O)Cc1c(Cl)cccc1Cl", "Compound NOT metabolized"]
]}

----------
# test conditions: human gut metagenome, 24 h, 2 µM
property name: Bacterial Biotransformation

{"columns": ["compound", "observed value"],
 "data": [
  ["CCOc1cc(CC(=O)N[C@@H](CC(C)C)c2ccccc2N2CCCCC2)ccc1C(=O)O [REPAGLINIDE]", "Compound metabolized"],
  ["CSc1ccc2c(c1)C(N1CCN(C)CC1)Cc1ccccc1S2.O=C(O)/C=C\\C(=O)O (stereo unspecified)", "Compound NOT metabolized"],
  ["OC(c1cc(C(F)(F)F)nc2c(C(F)(F)F)cccc12)C1CCCCN1 (stereo unspecified)", "Compound metabolized"],
  ["COc1cc(NC(C)CCCN)c2ncccc2c1.O=P(O)(O)O.O=P(O)(O)O (stereo unspecified) [PRIMAQUINE PHOSPHATE]", "Compound metabolized"],
  ["COC(=O)[C@H](c1ccccc1Cl)N1CCc2sccc2C1.O=S(=O)(O)O [CLOPIDOGREL BISULFATE]", "Compound metabolized"],
  ["CC(CCc1ccccc1)NCC(O)c1ccc(O)c(C(N)=O)c1 (stereo unspecified)", "Compound NOT metabolized"],
  ["C=CC[C@@H]1/C=C(\\C)C[C@H](C)C[C@H](OC)[C@H]2O[C@@](O)(C(=O)C(=O)N3CCCC[C@H]3C(=O)O[C@H](/C(C)=C/[C@@H]3CC[C@@H](O)[C@H](OC)C3)[C@H](C)[C@@H](O)CC1=O)[C@H](C)C[C@@H]2OC.O", "Compound metabolized"],
  ["CN1CCN(C2=Nc3ccccc3Oc3ccc(Cl)cc32)CC1.O=C(O)CCC(=O)O [LOXAPINE SUCCINATE]", "Compound NOT metabolized"],
  ["Nc1nc(N)nc(-c2cc(Cl)ccc2Cl)n1.O=C(O)/C=C\\C(=O)O [IRSOGLADINE MALEATE]", "Compound NOT metabolized"],
  ["Nc1nnc(-c2cccc(Cl)c2Cl)c(N)n1", "Compound metabolized"],
  ["C[N+]12CCC(CC1)C(OC(=O)C(O)(c1ccccc1)c1ccccc1)C2.[Br-] (stereo unspecified) [CLIDINIUM BROMIDE]", "Compound NOT metabolized"],
  ["O=C1C(CC[S+]([O-])c2ccccc2)C(=O)N(c2ccccc2)N1c1ccccc1 (stereo unspecified)", "Compound metabolized"],
  ["CCOC(=O)C1=C[C@]2(CC)CCCN3CCc4c(n1c1ccccc41)[C@@H]32", "Compound NOT metabolized"],
  ["CC1Cc2ccccc2N1NC(=O)c1ccc(Cl)c(S(N)(=O)=O)c1 (stereo unspecified) [INDAPAMIDE]", "Compound NOT metabolized"],
  ["CN(C)CCOC(C)(c1ccccc1)c1ccccn1.O=C(O)CCC(=O)O (stereo unspecified) [DOXYLAMINE SUCCINATE]", "Compound NOT metabolized"],
  ["COc1ccc(C(CN(C)C)C2(O)CCCCC2)cc1 (stereo unspecified)", "Compound NOT metabolized"]
]}
